Target: hEg5-367H (Y211M) (Homo sapiens, UniProt P52732, Y211M)
Sequence (P52732 1-367 Y211M): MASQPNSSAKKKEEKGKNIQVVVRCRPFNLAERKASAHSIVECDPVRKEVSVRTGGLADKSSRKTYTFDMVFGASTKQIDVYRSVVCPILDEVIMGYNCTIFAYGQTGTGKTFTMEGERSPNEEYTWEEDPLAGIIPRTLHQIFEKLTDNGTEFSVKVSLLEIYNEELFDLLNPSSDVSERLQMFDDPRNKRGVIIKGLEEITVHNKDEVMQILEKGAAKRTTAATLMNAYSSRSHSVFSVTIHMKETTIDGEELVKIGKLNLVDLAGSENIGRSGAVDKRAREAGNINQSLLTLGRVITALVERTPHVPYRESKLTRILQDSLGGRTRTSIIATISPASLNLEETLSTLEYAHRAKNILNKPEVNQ
Assay: ATP hydrolysis by Eg5 motor domain mutant Y211M
Assay type: biochemical
Settings: Figure 4B; legend: basal ATP hydrolysis; read-out: IC50(μM) of monastrol, (Y211M)
measure-name: IC50 (µM)
# number only, unit µM dropped from output

QUERY: Which value of IC50 has been reported for CCOC(=O)C1=C(C)NC(=S)NC1c1cccc(O)c1 (stereo not shown) in the records?
RESULT: 0.8
